# test_method_notes: Octanol-water partition coefficient, log KOW of the compound
# Format: physicochemical
# setup_conditions: read-out: log KOW
Counter-ions that a name gives are not always drawn.
parameter: logP

INSERT INTO results (compound, result) VALUES
  ('Cl[C@H]1[C@H](Cl)[C@@H](Cl)[C@H](Cl)[C@@H](Cl)[C@H]1Cl [DELTA-HEXACHLOROCYCLOHEXANE]', '< 4'),
  ('Cl[C@H]1[C@H](Cl)[C@@H](Cl)[C@H](Cl)[C@@H](Cl)[C@@H]1Cl [BETA-HEXACHLOROCYCLOHEXANE]', '< 4'),
  ('Cl[C@H]1[C@H](Cl)[C@H](Cl)[C@@H](Cl)[C@H](Cl)[C@H]1Cl [ALPHA-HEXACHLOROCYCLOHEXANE]', '< 4'),
  ('O=S1(=O)OCC2C(CO1)C1(Cl)C(Cl)=C(Cl)C2(Cl)C1(Cl)Cl (stereo not drawn) [ENDOSULFAN SULFATE]', '< 4'),
  ('Clc1ccc(C(c2ccc(Cl)cc2)C(Cl)(Cl)Cl)cc1 [CHLOROPHENOTHANE]', '> 6'),
  ('Cl[C@H]1[C@H](Cl)[C@@H](Cl)[C@@H](Cl)[C@H](Cl)[C@H]1Cl [LINDANE]', '< 4'),
  ('O=S1OC[C@@H]2[C@H](CO1)[C@]1(Cl)C(Cl)=C(Cl)[C@]2(Cl)C1(Cl)Cl (stereo partly drawn) [BETA-ENDOSULFAN]', '< 4'),
  ('O=S1OC[C@@H]2[C@H](CO1)[C@@]1(Cl)C(Cl)=C(Cl)[C@]2(Cl)C1(Cl)Cl (stereo partly drawn) [ALPHA-ENDOSULFAN]', '< 4');

====

# Tested on: Fruit
# test_method_notes: Drug uptake in Solanum lycopersicum (tomato) fruit peel after 60 to 151 days post germination by GC-ECD analysis
# Format: ADME
Structures can show the parent of a compound that is named as a salt.
I would appreciate it if you labelled entries rule met when Drug uptake is 2 ng/g or higher, otherwise rule not met.

INSERT INTO assay_data (compound, category) VALUES
  ('O=S1OC[C@@H]2[C@H](CO1)[C@]1(Cl)C(Cl)=C(Cl)[C@]2(Cl)C1(Cl)Cl (stereo partly drawn) [BETA-ENDOSULFAN]', 'rule met'),
  ('Cl[C@H]1[C@H](Cl)[C@@H](Cl)[C@@H](Cl)[C@H](Cl)[C@H]1Cl [LINDANE]', 'rule met'),
  ('Clc1ccc(C(c2ccc(Cl)cc2)C(Cl)(Cl)Cl)cc1 [CHLOROPHENOTHANE]', 'rule met'),
  ('ClC(Cl)=C(c1ccc(Cl)cc1)c1ccc(Cl)cc1 [DICHLORODIPHENYLDICHLOROETHYLENE]', 'rule met'),
  ('Cl[C@H]1[C@H](Cl)[C@@H](Cl)[C@H](Cl)[C@@H](Cl)[C@H]1Cl [DELTA-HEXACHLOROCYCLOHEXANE]', 'rule not met'),
  ('O=S1(=O)OCC2C(CO1)C1(Cl)C(Cl)=C(Cl)C2(Cl)C1(Cl)Cl (centres undefined) [ENDOSULFAN SULFATE]', 'rule met'),
  ('Cl[C@H]1[C@H](Cl)[C@H](Cl)[C@@H](Cl)[C@H](Cl)[C@H]1Cl [ALPHA-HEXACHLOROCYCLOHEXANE]', 'rule not met'),
  ('Cl[C@H]1[C@H](Cl)[C@@H](Cl)[C@H](Cl)[C@@H](Cl)[C@@H]1Cl [BETA-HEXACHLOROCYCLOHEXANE]', 'rule not met'),
  ('O=S1OC[C@@H]2[C@H](CO1)[C@@]1(Cl)C(Cl)=C(Cl)[C@]2(Cl)C1(Cl)Cl (stereo partly drawn) [ALPHA-ENDOSULFAN]', 'rule met');

====

# Tested on: Root
# test_method_notes: Drug uptake in Solanum lycopersicum (tomato) root after 16 to 59 days post germination by GC-ECD analysis
# Format: ADME
Counter-ions that a name gives are not always drawn.
parameter: log10 Drug uptake (log10 of the value in ng/g)

INSERT INTO results (molecule, target_or_test_system, parameter, readout_number) VALUES
  ('O=S1(=O)OCC2C(CO1)C1(Cl)C(Cl)=C(Cl)C2(Cl)C1(Cl)Cl (centres undefined) [ENDOSULFAN SULFATE]', 'Root', 'log10 Drug uptake', 1.32),
  ('Clc1ccc(C(c2ccc(Cl)cc2)C(Cl)(Cl)Cl)cc1', 'Root', 'log10 Drug uptake', 0.40),
  ('O=S1OC[C@@H]2[C@H](CO1)[C@@]1(Cl)C(Cl)=C(Cl)[C@]2(Cl)C1(Cl)Cl (stereo partly drawn) [ALPHA-ENDOSULFAN]', 'Root', 'log10 Drug uptake', 0.11),
  ('Cl[C@H]1[C@H](Cl)[C@@H](Cl)[C@@H](Cl)[C@H](Cl)[C@H]1Cl', 'Root', 'log10 Drug uptake', 0.67),
  ('ClC(Cl)=C(c1ccc(Cl)cc1)c1ccc(Cl)cc1', 'Root', 'log10 Drug uptake', 1.37),
  ('O=S1OC[C@@H]2[C@H](CO1)[C@]1(Cl)C(Cl)=C(Cl)[C@]2(Cl)C1(Cl)Cl (stereo partly drawn) [BETA-ENDOSULFAN]', 'Root', 'log10 Drug uptake', -0.05),
  ('Cl[C@H]1[C@H](Cl)[C@H](Cl)[C@@H](Cl)[C@H](Cl)[C@H]1Cl', 'Root', 'log10 Drug uptake', -0.40),
  ('Cl[C@H]1[C@H](Cl)[C@@H](Cl)[C@H](Cl)[C@@H](Cl)[C@@H]1Cl', 'Root', 'log10 Drug uptake', 0.04),
  ('Cl[C@H]1[C@H](Cl)[C@@H](Cl)[C@H](Cl)[C@@H](Cl)[C@H]1Cl', 'Root', 'log10 Drug uptake', -0.10);

====

# Test system: Stem
# test_method_notes: Drug uptake in Solanum lycopersicum (tomato) stem after 16 to 59 days post germination by GC-ECD analysis
# Format: ADME
Where a name gives a salt, the structure may show the parent alone.
parameter: Drug uptake

INSERT INTO results (compound, target_or_test_system, parameter, result) VALUES
  ('O=S1OC[C@@H]2[C@H](CO1)[C@@]1(Cl)C(Cl)=C(Cl)[C@]2(Cl)C1(Cl)Cl (stereo partly drawn) [ALPHA-ENDOSULFAN]', 'Stem', 'Drug uptake', '0.9 ng/g'),
  ('Cl[C@H]1[C@H](Cl)[C@H](Cl)[C@@H](Cl)[C@H](Cl)[C@H]1Cl', 'Stem', 'Drug uptake', '1.1 ng/g'),
  ('Cl[C@H]1[C@H](Cl)[C@@H](Cl)[C@@H](Cl)[C@H](Cl)[C@H]1Cl', 'Stem', 'Drug uptake', '9.4 ng/g'),
  ('Clc1ccc(C(c2ccc(Cl)cc2)C(Cl)(Cl)Cl)cc1', 'Stem', 'Drug uptake', '10.5 ng/g'),
  ('Cl[C@H]1[C@H](Cl)[C@@H](Cl)[C@H](Cl)[C@@H](Cl)[C@H]1Cl', 'Stem', 'Drug uptake', '3.6 ng/g'),
  ('Cl[C@H]1[C@H](Cl)[C@@H](Cl)[C@H](Cl)[C@@H](Cl)[C@@H]1Cl', 'Stem', 'Drug uptake', '4.2 ng/g'),
  ('ClC(Cl)=C(c1ccc(Cl)cc1)c1ccc(Cl)cc1', 'Stem', 'Drug uptake', '8.6 ng/g'),
  ('O=S1(=O)OCC2C(CO1)C1(Cl)C(Cl)=C(Cl)C2(Cl)C1(Cl)Cl (centres undefined) [ENDOSULFAN SULFATE]', 'Stem', 'Drug uptake', '99.7 ng/g'),
  ('O=S1OC[C@@H]2[C@H](CO1)[C@]1(Cl)C(Cl)=C(Cl)[C@]2(Cl)C1(Cl)Cl (stereo partly drawn) [BETA-ENDOSULFAN]', 'Stem', 'Drug uptake', '3.2 ng/g');

====

# Test system: Stem
# test_method_notes: Drug uptake in Solanum lycopersicum (tomato) stem after 1 to 15 days post germination by GC-ECD analysis
# Format: ADME
We begin with a simple list: items and their reported Drug uptake.
parameter: Drug uptake (ng/g)

INSERT INTO assay_data (molecule, target_or_test_system, parameter, readout_number) VALUES
  ('Cl[C@H]1[C@H](Cl)[C@@H](Cl)[C@H](Cl)[C@@H](Cl)[C@H]1Cl [DELTA-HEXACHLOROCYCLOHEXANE]', 'Stem', 'Drug uptake', 4.7),
  ('Cl[C@H]1[C@H](Cl)[C@@H](Cl)[C@H](Cl)[C@@H](Cl)[C@@H]1Cl [BETA-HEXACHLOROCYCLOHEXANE]', 'Stem', 'Drug uptake', 8.9),
  ('Cl[C@H]1[C@H](Cl)[C@H](Cl)[C@@H](Cl)[C@H](Cl)[C@H]1Cl [ALPHA-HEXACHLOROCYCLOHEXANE]', 'Stem', 'Drug uptake', 1.7),
  ('Clc1ccc(C(c2ccc(Cl)cc2)C(Cl)(Cl)Cl)cc1 [CHLOROPHENOTHANE]', 'Stem', 'Drug uptake', 9.4),
  ('O=S1OC[C@@H]2[C@H](CO1)[C@@]1(Cl)C(Cl)=C(Cl)[C@]2(Cl)C1(Cl)Cl (stereo partly drawn) [ALPHA-ENDOSULFAN]', 'Stem', 'Drug uptake', 1.2);
